tested on: human plasma; type: biochemical; details: amine bisulfites; control plasma 12.8 / 13.1
Threshold rule: PT REPLICATIONS 2 greater than or equal to 20 is yes (1); below that, no (0).

Use these answered entries as a reference point.
INSERT INTO measurements (compound, category_label) VALUES
  ('C=CCNCC=C [DIALLYL AMINE]', 'no (0)'),
  ('Nc1ccccc1 [ANILINE]', 'no (0)'),
  ('CC(C)(C)N [TERT-BUTYL AMINE]', 'yes (1)');

Identify whether the reported PT REPLICATIONS 2 of the following compound is 20 or greater: C=CCN [ALLYL AMINE]
no (0)

---

tested on: human plasma; assay type: biochemical; conditions: amine bisulfites; control plasma 37.8 / 39.2
Each entry below carries its recorded PTT REPLICATIONS 3.
Respond using a number only.

INSERT INTO assay_data (mol_smiles, value_observed) VALUES
  ('NCCO', 61.1),
  ('CNC1CCCCC1', 61.6),
  ('C=CCN', 44.9),
  ('CN(C)C1CCCCC1', 58.9),
  ('CC(C)(C)N', 69.0);

Sure, the documented PTT REPLICATIONS 3 for `OCCNCCO` is 60.6

Item: `C=CCNCC=C` | PTT REPLICATIONS 3: 39.1

Measured PTT REPLICATIONS 3, `Nc1ccccc1` : 42.9

---

# PT REPLICATIONS 1 annotations
system: human plasma; format: biochemical; settings: amine bisulfites; control plasma 12.8 / 13.1
Lab note: record just the number, no unit beside it.

INSERT INTO results (compound, value_observed) VALUES
  ('C=CCN [ALLYL AMINE]', 16.1);

Note to self: PT REPLICATIONS 1 of CN(C)C1CCCCC1 [N,N-DIMETHYL CYCLOHEXYL AMINE] with human plasma was 18.9

PT REPLICATIONS 1 on human plasma for Nc1ccccc1 [ANILINE] is 16.0

human plasma data for C=CCNCC=C [DIALLYL AMINE] ; its PT REPLICATIONS 1: 13.4

// returns PT REPLICATIONS 1 for OCCNCCO [DIETHANOL AMINE] with human plasma; value = 20.6

Hey, human plasma data for NCCO [ETHANOL AMINE] : PT REPLICATIONS 1 came out at 19.3

// returns PT REPLICATIONS 1 for CNC1CCCCC1 [N-METHYL CYCLOHEXYL AMINE] with human plasma; value = 20.5

Bench note, human plasma: entry CC(C)(C)N [TERT-BUTYL AMINE] , its PT REPLICATIONS 1 = 21.7

---

system: human plasma; type: biochemical; details: amine bisulfites; control plasma 37.5 / 38.2
Listed here are compounds together with their documented PTT REPLICATIONS 1.
Please give the numeric answer without any surrounding text.

INSERT INTO measurements (mol_smiles, target_or_system, measurement_kind, value_observed) VALUES
  ('CNC1CCCCC1', 'human plasma', 'PTT REPLICATIONS 1', 60.6),
  ('C=CCNCC=C', 'human plasma', 'PTT REPLICATIONS 1', 38.8),
  ('C=CCN', 'human plasma', 'PTT REPLICATIONS 1', 47.1),
  ('OCCNCCO', 'human plasma', 'PTT REPLICATIONS 1', 62.6),
  ('CC(C)(C)N', 'human plasma', 'PTT REPLICATIONS 1', 68.2);

Entry `CN(C)C1CCCCC1` — recorded PTT REPLICATIONS 1 = 60.1

Lookup result for `Nc1ccccc1` ; measured PTT REPLICATIONS 1: 45.4

PTT REPLICATIONS 1 reported for this compound `NCCO` : 65.3
